Target: TEK (Homo sapiens)
Sequence (Q02763 23-1124): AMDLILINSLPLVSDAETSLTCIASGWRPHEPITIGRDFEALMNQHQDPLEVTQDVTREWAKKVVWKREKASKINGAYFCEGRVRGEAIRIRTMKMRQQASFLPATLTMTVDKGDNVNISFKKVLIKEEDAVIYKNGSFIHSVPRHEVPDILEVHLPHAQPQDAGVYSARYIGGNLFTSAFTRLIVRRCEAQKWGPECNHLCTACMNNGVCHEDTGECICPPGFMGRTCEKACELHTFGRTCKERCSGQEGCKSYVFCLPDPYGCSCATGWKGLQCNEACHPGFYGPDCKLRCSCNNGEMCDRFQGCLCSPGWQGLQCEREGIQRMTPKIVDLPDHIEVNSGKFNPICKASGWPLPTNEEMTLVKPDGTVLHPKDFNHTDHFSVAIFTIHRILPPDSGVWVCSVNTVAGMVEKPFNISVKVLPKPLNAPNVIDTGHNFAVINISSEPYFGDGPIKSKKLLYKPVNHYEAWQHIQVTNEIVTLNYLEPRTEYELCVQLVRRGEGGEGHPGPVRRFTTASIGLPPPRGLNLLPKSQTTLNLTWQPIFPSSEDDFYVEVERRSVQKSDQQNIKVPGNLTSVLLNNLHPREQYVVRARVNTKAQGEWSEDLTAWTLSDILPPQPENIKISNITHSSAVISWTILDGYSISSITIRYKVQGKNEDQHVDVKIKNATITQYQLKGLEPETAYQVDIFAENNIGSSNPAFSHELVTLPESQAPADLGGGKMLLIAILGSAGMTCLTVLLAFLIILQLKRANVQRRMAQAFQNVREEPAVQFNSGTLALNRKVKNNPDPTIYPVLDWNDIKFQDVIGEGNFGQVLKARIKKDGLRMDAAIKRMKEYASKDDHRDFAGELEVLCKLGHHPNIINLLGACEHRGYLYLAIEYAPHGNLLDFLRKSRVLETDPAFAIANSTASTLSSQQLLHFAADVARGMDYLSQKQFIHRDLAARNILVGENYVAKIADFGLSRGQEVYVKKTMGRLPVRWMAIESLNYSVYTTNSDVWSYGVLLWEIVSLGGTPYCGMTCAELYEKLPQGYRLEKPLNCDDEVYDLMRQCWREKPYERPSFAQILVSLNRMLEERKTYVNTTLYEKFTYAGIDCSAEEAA
pIC50: −log10 of the molar value.
Some molecules, each annotated with its measured pIC50.

molecule	result
COc1ccc(C2CC(c3ccc(Cl)cc3Cl)=NN2c2nc(C)c(C(=O)Nc3ccccc3)s2)cc1OC (centres unmarked) [Compound 10d]	< 5.70

Here's the next entry for you.
Looking up CCOC(=O)c1sc(N2N=C(c3ccc(Cl)cc3Cl)CC2c2ccc(OC)cc2)nc1C (centres unmarked) [Compound 10b] , I found its pIC50 recorded as < 5.70

---

# IC50 annotations
Molecular target: PKC
Test: Kinase selectivity profiling, Z'-LYTE FRET
Settings: read-out: IC50 (nM) PKC

compound	IC50
COc1ccc(C2CC(c3ccc(Cl)cc3Cl)=NN2c2nc(C)c(C(=O)Nc3ccccc3)s2)cc1OC (centres unmarked) [Compound 10d]	> 2000 nM

Turning now to a further record.
get_value(item= CCOC(=O)c1sc(N2N=C(c3ccc(Cl)cc3Cl)CC2c2ccc(OC)cc2)nc1C (centres unmarked) [Compound 10b] , readout=IC50) returns > 2000 nM

The measured values listed here are drawn from paper PMC9415638.
